Numbers sourced from patent US20170150719A1.

Measured Test A rating (disease control), listed per entry for reference.
System: Botrytis cinerea
assay-explanation: Test A: tomato Botrytis, preventive spray on tomato seedlings, visual disease rating
condition-notes: tomato Botrytis; 100 = 100% disease control, 0 = no disease control relative to the controls
Report only the number, with the unit % understood.

In the examples that follow, each entry is paired with its recorded Test A rating (disease control).
{"molecule": "Cc1nn(C)c(Oc2ccc(C#N)cc2F)c1-c1c(F)cc(F)cc1F", "Test A rating (disease control) [%]": 99}
{"molecule": "COc1ccc(Nc2c(-c3c(F)cccc3F)c(C)nn2C)c(F)c1", "Test A rating (disease control) [%]": 100}
{"molecule": "Cc1nn(C)c(Nc2c(F)cc(C#N)cc2F)c1-c1ccc(F)cc1F", "Test A rating (disease control) [%]": 100}
{"molecule": "Cc1nn(C)c(Nc2c(F)cc(F)cc2F)c1-c1c(F)cc(C#N)cc1F", "Test A rating (disease control) [%]": 100}
{"molecule": "COc1cc(F)c(-c2c(C)nn(C)c2Oc2ccc(Cl)cc2Cl)c(F)c1", "Test A rating (disease control) [%]": 99}

Lab book: Test A rating (disease control) of Cc1nn(C)c(Nc2c(F)cc(C#N)cc2F)c1-c1c(F)cccc1Cl noted as 97

Lab book: Test A rating (disease control) of COc1cc(F)c(Nc2c(-c3c(F)cccc3F)c(C)nn2C)c(F)c1 noted as 100

Lab book: Test A rating (disease control) of Cc1nn(C)c(Nc2ccc(C#N)cc2F)c1-c1c(F)cccc1F noted as 99

Lab book: Test A rating (disease control) of Cc1nn(C)c(Nc2ccccc2F)c1-c1ccc(F)cc1Cl noted as 99

Lab book: Test A rating (disease control) of Cc1nn(C)c(Oc2ccc(C#N)cc2F)c1-c1ccc(Cl)cc1F noted as 99

Lab book: Test A rating (disease control) of COc1cc(F)c(Nc2c(-c3ccccc3F)c(C)nn2C)c(F)c1 noted as 97

Lab book: Test A rating (disease control) of Cc1nn(C)c(Nc2ccc(F)cc2Cl)c1-c1c(F)cc(C#N)cc1F noted as 100

Lab book: Test A rating (disease control) of Cc1nn(C)c(Nc2c(F)cccc2F)c1-c1ccc(F)cc1F noted as 99

Lab book: Test A rating (disease control) of Cc1nn(C)c(C(O)c2c(F)cc(F)cc2F)c1-c1ccc(F)cc1Cl (racemic) noted as 100

Lab book: Test A rating (disease control) of Cc1nn(C)c(Nc2ccc(F)cc2F)c1-c1c(Cl)cccc1Cl noted as 100

Lab book: Test A rating (disease control) of Cc1nn(C)c(Nc2ccc(Br)cc2Cl)c1-c1ccc(F)cc1Cl noted as 100

Lab book: Test A rating (disease control) of Cc1nn(C)c(Nc2ccc(F)cc2F)c1-c1ccccc1F noted as 94

Lab book: Test A rating (disease control) of COc1ccc(Oc2c(-c3ccc(F)cc3Cl)c(C)nn2C)c(F)c1 noted as 98

Lab book: Test A rating (disease control) of Cc1nn(C)c(Nc2c(Cl)cc(F)cc2Cl)c1-c1ccc(Cl)cc1Cl noted as 93
